- experiment-description: Selectivity index, ratio of CC50 for human MT4 cells to EC50 for HIV1
- Format: toxicity, cell-based
- cond: read-out: Ratio CC50/EC50
The reader will find reported selectivity ratio values listed item by item below.

compound	result-comparator	selectivity ratio
COc1ccc(NC(=S)OCCc2ccncc2)cc1	<	1
S=C(Nc1ccccc1)OCCc1ccccc1	=	17
S=C(Nc1ccccc1)OCCc1ccccn1	>	14
FC(F)(F)c1cc(NC(=S)OCCc2ccccn2)ccc1Cl	=	7.6
Cc1ccccc1NC(=S)OCCc1ccccn1	>	1.4
S=C(NCCc1ccccn1)Nc1ccc(Br)cn1 [TROVIRDINE]	=	3000
COc1ccc(NC(=S)OCCc2ccccc2)cc1	=	2.1
S=C(Nc1ccc(Br)cc1)OCCc1ccccn1	=	185
Cc1ccc(NC(=S)OCCc2ccccn2)cc1Cl	=	84
CCc1ccc(NC(=S)OCCc2ccccn2)cc1	=	4.4
S=C(Nc1cccc(Cl)c1)OCCc1ccccn1	=	34
O=[N+]([O-])c1cccc(NC(=S)OCCc2ccccn2)c1	=	63
Cc1ccc(NC(=S)OCCc2ccccn2)cc1	=	44
Fc1cccc(NC(=S)OCCc2ccccn2)c1	≥	91
S=C(Nc1ccc(Cl)cc1Cl)OCCc1ccccn1	>	34
Cc1ccc(NC(=S)OCCc2ccccc2)cc1	>	23
S=C(Nc1ccccc1)OCCc1cccs1	>	7.1
Fc1ccc(NC(=S)OCCc2ccccn2)cc1	>	83
Fc1cccc(F)c1NC(=S)OCCc1ccccn1	>	2.6
S=C(Nc1ccc(Cl)cc1)OCCc1ccccc1	>	200
S=C(Nc1ccc(Cl)c(Cl)c1)OCCc1ccccn1	=	200
Fc1ccc(F)c(NC(=S)OCCc2ccccn2)c1	>	11
CN(C)c1ccc(NC(=S)OCCc2ccccn2)cc1	<	1
S=C(Nc1ccccc1Cl)OCCc1ccccn1	>	2.3
S=C(Nc1ccc(Cl)cc1)OCCc1ccccn1	=	520
Cc1ccc(NC(=S)OCCc2ccncc2)cc1	>	1.6
S=C(Nc1ccc(I)cc1)OCCc1ccccn1	=	68
Cc1cccc(NC(=S)OCCc2ccccn2)c1	>	13

* * *

- experiment-description: Selectivity index, ratio of CC50 for human MT4 cells to EC50 for HIV1
- Format: toxicity, cell-based
- cond: read-out: Ratio CC50/EC50
The reader will find reported selectivity ratio values listed item by item below.
measured-attribute: selectivity ratio

smiles-string	result-comparator	endpoint-result
O=[N+]([O-])c1ccc(NC(=S)OCCc2ccccc2)cc1	>	111
FC(F)(F)c1ccc(NC(=S)OCCc2ccccn2)cc1	=	3.8
S=C(Nc1ccc(Cl)cc1)OCCc1ccncc1	<	1
O=[N+]([O-])c1ccc(NC(=S)OCCc2ccccn2)cc1	>	143
Fc1cc(F)cc(NC(=S)OCCc2ccccn2)c1	>	11
N#Cc1ccc(NC(=S)OCCc2ccccn2)cc1	=	225
O=[N+]([O-])c1cc(NC(=S)OCCc2ccccn2)ccc1Cl	=	410
CC(C)c1ccc(NC(=S)OCCc2ccccn2)cc1	<	1
COc1ccc(NC(=S)OCCc2ccccn2)cc1	=	8.6

* * *

- Test system: Human immunodeficiency virus 1
- experiment-description: Antiretroviral activity against HIV1 in human MT4 cells assessed as reduction in virus-induced cytopathogenicity by MTT assay
- Type: functional, organism-based
- cond: Human immunodeficiency virus 1, MT4
measured-attribute: EC50 (µM)

smiles-string	measure-unit	endpoint-result
S=C(Nc1ccccc1Cl)OCCc1ccccn1	µM	43
S=C(Nc1ccccc1)OCCc1ccccn1	µM	7.4
S=C(Nc1ccc(Cl)cc1Cl)OCCc1ccccn1	µM	2.9
S=C(Nc1ccc(Cl)cc1)OCCc1ccccc1	µM	0.5
COc1ccc(NC(=S)OCCc2ccccn2)cc1	µM	5.6
N#Cc1ccc(NC(=S)OCCc2ccccn2)cc1	µM	0.2
COc1ccc(NC(=S)OCCc2ccccc2)cc1	µM	17
